- assayed-target: T1, Rhesus (Maccaca mulatta, US20090191580-5) c-Met ECD (Rhesus (Maccaca mulatta))
- T1 construct: extracellular domain; also called Rhesus c-Met ECD; Rhesus ECD
- assay-overview: binding ELISA, Rhesus c-Met ECD immobilised (1 µg/ml)
pEC50: −log10 of the molar value.
Listing: pEC50 of selected binders

| binder | pEC50 |
| --- | --- |
| 36C4 mAb (antibody, V domains shown, also called SIMPLE antibody 36C4) VH: QVQLVESGPGLVKPSQTLSLTCAVSGGSITTNYYYWSWIRQSPGKGLEWMGVIAYDGSTDYSPSLKSRTSISRDTSKNQFSLQLSSVTPEDTAVYYCARDVRVIATGWATANALDAWGQGTLVTVSS VL: QSVLTQPPSVSGSPGKTVTISCAGTSSDVGYGNYVSWYQQLPGTAPKLLIFAVSYRASGIPDRFSGSKSGNTAFLTISGLQSEDEADYYCASYRSSNNAAVFGGGTHLTVL | 9.85 |
| 12G4 mAb (antibody, V domains shown) VH: QLQLVESGGGMAQPGGSLKLSCAASGFTFDDYAMTWVRQAPGKGLEWLSTISWNDINTYYAESMKDRFTISRDNAKNTLYLQMNSLESEDTAVYYCAKRRDNYYGTSGEYDYWGQGTQVTVSS VL: QSALTQPPSVSGTLGKTVTISCAGTSSDIGNYNYVSWYQQLPGTAPKLLIYEVNKRPSGIPDRFSGSKSGNTASLSISGLQSEDEADYYCASYRSSNNVVFGGGTKLTVL | 9.47 |
| 38H10 mAb (antibody, V domains shown) VH: EVQLVQPGVELRNPGASVKVSCKASGYIFTMNSIDWVRQAPGQGLEWMGRIDPEDGGTKYAQKFQGRVTFTADTSTSTAYVELNSLRSEDTAVYYCARVDDYYLGYDYWGQGTQVTVSS VL: EIVMTQSPSSVTASAGEKVTINCKSSQSVLWRSNQKNYLAWYQQRLGQSPRLLISWASIRESGVPDRFSGSGSTTDFTLTISSFQPEDAAVYYCQQGYSFPYTFGSGTRLEIK | 9.77 |
